system-name: rNav1.2 sodium channels (Rattus norvegicus, UniProt P04775)
Construct: host or cells: HEK-293
Sequence (P04775 whole entry): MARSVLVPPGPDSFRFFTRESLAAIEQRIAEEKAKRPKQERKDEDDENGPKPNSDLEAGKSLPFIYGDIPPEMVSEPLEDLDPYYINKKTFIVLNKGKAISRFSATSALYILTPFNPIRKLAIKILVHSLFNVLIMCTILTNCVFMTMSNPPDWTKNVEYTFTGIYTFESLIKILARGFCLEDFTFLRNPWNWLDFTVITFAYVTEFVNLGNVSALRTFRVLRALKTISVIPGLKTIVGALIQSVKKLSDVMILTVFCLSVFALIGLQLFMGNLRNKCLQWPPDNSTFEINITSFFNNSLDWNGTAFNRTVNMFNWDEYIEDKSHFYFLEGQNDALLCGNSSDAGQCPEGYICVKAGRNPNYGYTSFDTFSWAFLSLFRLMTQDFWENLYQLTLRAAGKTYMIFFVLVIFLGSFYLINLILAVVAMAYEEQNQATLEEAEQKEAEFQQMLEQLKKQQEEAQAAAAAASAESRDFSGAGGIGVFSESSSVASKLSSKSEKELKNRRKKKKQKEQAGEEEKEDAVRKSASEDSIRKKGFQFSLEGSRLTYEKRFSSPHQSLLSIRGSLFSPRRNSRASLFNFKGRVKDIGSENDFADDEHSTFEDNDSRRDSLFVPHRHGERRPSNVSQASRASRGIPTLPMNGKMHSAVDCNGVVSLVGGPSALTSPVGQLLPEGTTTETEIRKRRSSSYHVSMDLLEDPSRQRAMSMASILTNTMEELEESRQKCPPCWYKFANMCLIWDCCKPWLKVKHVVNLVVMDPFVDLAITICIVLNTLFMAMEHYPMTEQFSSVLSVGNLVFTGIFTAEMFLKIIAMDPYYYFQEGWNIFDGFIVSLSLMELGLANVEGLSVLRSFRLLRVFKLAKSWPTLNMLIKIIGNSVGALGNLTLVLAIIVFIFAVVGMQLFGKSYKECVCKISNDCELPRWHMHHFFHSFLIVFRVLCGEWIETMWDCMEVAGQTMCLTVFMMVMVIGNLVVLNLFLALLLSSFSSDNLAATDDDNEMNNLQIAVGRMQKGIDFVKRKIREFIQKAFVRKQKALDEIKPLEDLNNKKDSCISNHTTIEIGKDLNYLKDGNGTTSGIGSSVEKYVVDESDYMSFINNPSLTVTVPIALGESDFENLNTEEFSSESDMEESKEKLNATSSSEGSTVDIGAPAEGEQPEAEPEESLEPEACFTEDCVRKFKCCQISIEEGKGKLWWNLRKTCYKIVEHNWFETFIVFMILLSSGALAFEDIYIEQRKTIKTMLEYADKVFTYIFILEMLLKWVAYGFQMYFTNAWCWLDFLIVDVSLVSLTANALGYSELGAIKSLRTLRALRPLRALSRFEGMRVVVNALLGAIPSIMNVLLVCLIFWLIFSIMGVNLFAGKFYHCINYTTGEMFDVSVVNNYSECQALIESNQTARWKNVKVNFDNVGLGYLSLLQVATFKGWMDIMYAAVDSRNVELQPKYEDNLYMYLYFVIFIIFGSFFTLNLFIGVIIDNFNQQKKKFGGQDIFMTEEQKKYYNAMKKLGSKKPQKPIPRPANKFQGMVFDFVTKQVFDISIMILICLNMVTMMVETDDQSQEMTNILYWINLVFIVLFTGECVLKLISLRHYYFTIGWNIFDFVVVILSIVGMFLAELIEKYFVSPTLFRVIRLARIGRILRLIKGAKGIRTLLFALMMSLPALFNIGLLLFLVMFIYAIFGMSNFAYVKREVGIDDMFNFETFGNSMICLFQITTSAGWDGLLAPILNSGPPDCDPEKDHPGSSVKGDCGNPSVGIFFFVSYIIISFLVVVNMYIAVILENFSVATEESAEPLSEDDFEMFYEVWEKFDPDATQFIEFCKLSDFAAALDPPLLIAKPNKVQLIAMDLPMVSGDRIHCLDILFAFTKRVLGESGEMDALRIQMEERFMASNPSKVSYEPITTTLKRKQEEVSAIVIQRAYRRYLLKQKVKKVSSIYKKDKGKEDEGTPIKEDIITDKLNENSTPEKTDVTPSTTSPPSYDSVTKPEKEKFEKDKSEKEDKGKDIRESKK
protocol-text: QPatch automated patch clamp, inhibition of sodium currents evoked by 5 Hz trains at three extracellular pH values
Format: cell-based
experimental-setup: pH 6.0/8.6; cc 100 mM
value-kind: Ratio Tau Onset
Just the number.

compound | Ratio Tau Onset
Nc1c(Br)cc(Br)cc1CN[C@H]1CC[C@H](O)CC1 | 0.667

Name the reported Ratio Tau Onset value associated with the compound C[Si](C)(Cc1ccc(F)cc1)CN1CCCCC1 1.154

State the recorded Ratio Tau Onset for this entry: CNCCC(Oc1ccccc1OC)c1ccccc1 (stereo not drawn) 1.245

Any idea what its Ratio Tau Onset is? The compound is CN1CCN2c3ncccc3Cc3ccccc3C2C1 (stereo not drawn) 1.173

State the recorded Ratio Tau Onset for this entry: CCCCN1CCCCC1C(=O)Nc1c(C)cccc1C (stereo not drawn) 4.322

Given the compound COc1ccc(C(CN(C)C)C2(O)CCCCC2)cc1 (stereo not drawn) , what is its reported Ratio Tau Onset? 1.405

# input compound: CC12CC3CC(C)(C1)CC(N)(C3)C2 [memantine] ; wanted: its Ratio Tau Onset 0.842

Which Ratio Tau Onset is reported for this compound? COc1ccccc1OCC(O)CN1CCN(CC(=O)Nc2c(C)cccc2C)CC1 (stereo not drawn) 0.667

Suppose we examine the compound Cc1ccc(C(=O)C(C)CN2CCCCC2)cc1 (stereo not drawn) ; what Ratio Tau Onset value has been reported? 1.423

====

system-name: rNav1.2 sodium channels (Rattus norvegicus, UniProt P04775)
Construct: host or cells: HEK-293
protocol-text: QPatch automated patch clamp, inhibition of sodium currents evoked by 5 Hz trains at three extracellular pH values
Type: cell-based
experimental-setup: pH=8.6; cc 300 mM
Overview of recorded Reversibility for various molecules
Give the figure by itself; no unit, no explanation.

molecule | value-kind | quantitative-readout
Cc1cccc(C)c1OCC(C)N (centres unmarked) | Reversibility | 0.60
NC(=O)N1c2ccccc2C=Cc2ccccc21 [carbamazepine] | Reversibility | 0.70
O=C(NCC1CCCCN1)c1cc(OCC(F)(F)F)ccc1OCC(F)(F)F (centres unmarked) [flecainide] | Reversibility | 0.23

# Reversibility lookup, item Nc1nnc(-c2cccc(Cl)c2Cl)c(N)n1 0.79

Entry O=C1NC(=O)C(c2ccccc2)(c2ccccc2)N1 : reported Reversibility = ? 0.63

====

system-name: rNav1.2 sodium channels (Rattus norvegicus)
Construct: host or cells: HEK-293
protocol-text: QPatch automated patch clamp, inhibition of sodium currents evoked by 5 Hz trains at three extracellular pH values
Assay type: cell-based
experimental-setup: pH=8.6; cc 100 mM
value-kind: Reversibility
Keep the answer to the number alone.

I'd like to know its Reversibility. The compound in question is C[Si](C)(Cc1ccc(F)cc1)CN1CCCCC1 [silperisone] 0.47

====

system-name: rNav1.2 sodium channels (Rattus norvegicus, UniProt P04775)
Construct: host or cells: HEK-293
protocol-text: QPatch automated patch clamp, inhibition of sodium currents evoked by 5 Hz trains at three extracellular pH values
Format: cell-based
experimental-setup: pH 6.0/7.3; cc 30 mM
value-kind: log Ratio App Aff
Please state the value as a number alone, without comment.

GET /values?readout=log Ratio App Aff&item= CN(C)CCCN1c2ccccc2Sc2ccc(Cl)cc21 [chlorpromazine] 0.077

Return reported log Ratio App Aff; argument: CN(C)CCC=C1c2ccccc2CCc2ccccc21 [amitriptyline] 0.202

log Ratio App Aff lookup needed for CCc1nn(CCCN2CCN(c3cccc(Cl)c3)CC2)c(=O)n1CCOc1ccccc1 [nefazodone] , thanks. 0.341

Look at this compound and give its reported log Ratio App Aff. CC12CC3CC(C)(C1)CC(N)(C3)C2 [memantine] 0.255

Entry Cc1nc2sccn2c(=O)c1CCN1CCC(=C(c2ccc(F)cc2)c2ccc(F)cc2)CC1 [ritanserin] has what log Ratio App Aff? 0.541

Any idea what its log Ratio App Aff is? The compound is Fc1ccc([C@@H]2CCNC[C@H]2COc2ccc3c(c2)OCO3)cc1 [paroxetine] 0.413

====

Kd reference
system-name: rNav1.2 sodium channels (Rattus norvegicus)
Construct: host or cells: HEK-293
protocol-text: QPatch automated patch clamp, inhibition of sodium currents evoked by 5 Hz trains at three extracellular pH values
Type: cell-based
experimental-setup: pH=7.3; cc 30 mM; read-out: Apparent Affinity
State the answer as a number, implicitly in µM.

Completed entries (count: 3):
compound | reading-unit | quantitative-readout
CN(C)CCCN1c2ccccc2Sc2ccc(Cl)cc21 | µM | 31.4
Fc1ccc([C@@H]2CCNC[C@H]2COc2ccc3c(c2)OCO3)cc1 | µM | 19.2
CC12CC3CC(C)(C1)CC(N)(C3)C2 [memantine] | µM | 219

Looking for the measured Kd of Cc1nc2sccn2c(=O)c1CCN1CCC(=C(c2ccc(F)cc2)c2ccc(F)cc2)CC1 , can you help? 8.87

So what's the measured Kd for this one? CCc1nn(CCCN2CCN(c3cccc(Cl)c3)CC2)c(=O)n1CCOc1ccccc1 17.4

Any idea what its Kd is? The compound is CN(C)CCC=C1c2ccccc2CCc2ccccc21 25.6

====

system-name: rNav1.2 sodium channels (Rattus norvegicus, UniProt P04775)
Construct: host or cells: HEK-293
protocol-text: QPatch automated patch clamp, inhibition of sodium currents evoked by 5 Hz trains at three extracellular pH values
Assay type: cell-based
experimental-setup: pH 6.0; single concentration (lidocaine 300 μM, memantine 30 μM); geometric mean of 5; read-out: apparent affinity
# reported pKd; entries follow
// pKd is dimensionless: -log10 of concentration (M)

These recorded examples may help you get a feel for the data.
molecule | value-kind | quantitative-readout
CCN(CC)CC(=O)Nc1c(C)cccc1C | pKd | 3.04
Cc1cccc(C)c1OCC(C)N (centres unmarked) | pKd | 3.46
Nc1nnc(-c2cccc(Cl)c2Cl)c(N)n1 | pKd | 3.48
Cc1nc2sccn2c(=O)c1CCN1CCC(=C(c2ccc(F)cc2)c2ccc(F)cc2)CC1 | pKd | 4.51

Next molecule, pKd to be filled in.
Could you tell me which pKd is on file for Nc1c(Br)cc(Br)cc1CN[C@H]1CC[C@H](O)CC1 ? 3.86

====

system-name: rNav1.2 sodium channels (Rattus norvegicus, UniProt P04775)
Construct: host or cells: HEK-293
protocol-text: QPatch automated patch clamp, inhibition of sodium currents evoked by 5 Hz trains at three extracellular pH values
Assay type: cell-based
experimental-setup: Apparent Affinity, pH=6.0; cc 100 mM
value-kind: Kd (µM)
Enter your answer as a number in µM; do not include the unit.

compound | reading-unit | Kd
COc1ccc(C(CN(C)C)C2(O)CCCCC2)cc1 (centres unmarked) [venlafaxine] | µM | 810

Query compound follows.
What value of Kd has been reported for the following compound? CNCCC(Oc1ccccc1OC)c1ccccc1 (centres unmarked) [nisoxetine] 210

====

system-name: rNav1.2 sodium channels (Rattus norvegicus, UniProt P04775)
Construct: host or cells: HEK-293
protocol-text: QPatch automated patch clamp, inhibition of sodium currents evoked by 5 Hz trains at three extracellular pH values
Format: cell-based
experimental-setup: pH 6.0/7.3; cc 300 mM
Reported log Ratio App Aff values for a set of compounds
Enter the number alone.

compound | log Ratio App Aff
Nc1nnc(-c2cccc(Cl)c2Cl)c(N)n1 | -0.277

Find the recorded log Ratio App Aff belonging to O=C(NCC1CCCCN1)c1cc(OCC(F)(F)F)ccc1OCC(F)(F)F (centres unmarked) [flecainide] and report it. 0.419

Entry Cc1cccc(C)c1OCC(C)N (centres unmarked) : reported log Ratio App Aff = ? 0.268

Quick one: log Ratio App Aff for O=C1NC(=O)C(c2ccccc2)(c2ccccc2)N1 ? 0.026

Record request: log Ratio App Aff value, item NC(=O)N1c2ccccc2C=Cc2ccccc21 [carbamazepine] -0.028

====

system-name: rNav1.2 sodium channels (Rattus norvegicus, UniProt P04775)
Construct: host or cells: HEK-293
protocol-text: QPatch automated patch clamp, inhibition of sodium currents evoked by 5 Hz trains at three extracellular pH values
Format: cell-based
experimental-setup: Apparent Affinity, pH=7.3; cc 100 mM
value-kind: Kd (µM)
Quick note: give the figure in µM, leave out the unit.

molecule | Kd [µM]
CNCCC(Oc1ccccc1OC)c1ccccc1 (centres unmarked) | 80.1

Here is the next item to consider.
Given COc1ccc(C(CN(C)C)C2(O)CCCCC2)cc1 (centres unmarked) , state its recorded Kd. 539

====

system-name: rNav1.2 sodium channels (Rattus norvegicus)
Construct: host or cells: HEK-293
protocol-text: QPatch automated patch clamp, inhibition of sodium currents evoked by 5 Hz trains at three extracellular pH values
Assay type: cell-based
experimental-setup: pH 6.0/7.3; cc 300 mM
Would you please tag the item label 1 when its Ratio Tau Onset is 1 or above, and label 0 when it is below?

Use these answered entries as a reference point.
compound | system-name | class
NC(=O)N1c2ccccc2C=Cc2ccccc21 [carbamazepine] | rNav1.2 sodium channels (Rattus norvegicus) | label 0
Cc1cccc(C)c1OCC(C)N (centres unmarked) | rNav1.2 sodium channels (Rattus norvegicus) | label 1
Nc1nnc(-c2cccc(Cl)c2Cl)c(N)n1 | rNav1.2 sodium channels (Rattus norvegicus) | label 0

Moving on to another compound below.
Say whether O=C(NCC1CCCCN1)c1cc(OCC(F)(F)F)ccc1OCC(F)(F)F (centres unmarked) [flecainide] shows Ratio Tau Onset of 1 or more. label 1
